Item-by-item account of activity
- test_description: caspase-8 TRAIL sensitization, hit retest, confirmation, cell-based, NB7+caspase-8, with/without TRAIL, luminescence panel (AID 651596)
- condition: NB7 neuroblastoma + caspase-8, without TRAIL, luminescence viability, without TRAIL, mean of runs, at 10 µM
attribute_measured: activity (%)

* CN(C)CCCN(C(=O)c1ccc(C(=O)c2ccccc2)cc1)c1nc2cc3c(cc2s1)OCO3 | 54.3
* COC(=O)CSc1nc2cc(C)ccc2cc1C#N | 53.9
* Clc1ccccc1-c1nnc(-c2ccc3c(c2)OCO3)o1 | 50.7
* O=C(CCl)Nc1cccc(-c2cnc3ccccc3n2)c1 | 99.2
* COc1ccc(-c2nc3ccccc3[nH]2)cc1 | 90.7
* C/C(=N\Nc1nncc2ccccc12)c1cccc(OC(F)F)c1 | 72.8
* Cc1ccc(C(=O)N/C(=C\c2ccc(-c3ccccc3[N+](=O)[O-])o2)C(=O)NCCN(C)C)cc1 | 99.7
* CC(C)CC(=O)Nc1ccc(-c2cn3ccsc3n2)cc1 | 88.2
* COc1ccccc1NC(=O)Nc1ccc2c(c1)nnn2C | 7.6
* Cn1cc(S(=O)(=O)CC(=O)N2CCCc3ccccc32)c2ccccc21 | -0.4
* CN(C)CCNC(=O)c1cccc(-c2cc(NC=O)c3ncc(-c4cccc(C(F)(F)F)c4)n3c2)c1 | 99.5
* Cc1cc(C)n(-c2nc(Nc3ccccc3C(F)(F)F)nc(-n3nc(C)cc3C)n2)n1 | 71.9
* COc1ccc(CSc2nc3ccccc3[nH]2)cc1 | 83.3
* O=C(N/N=C/c1ccc(Br)s1)c1ccccn1 | 46.6
* S=c1[nH]ncn1/N=C/c1ccc(N2CCOCC2)cc1 | 59.8
* COCC(C)n1c(C)cc(C(=O)COC(=O)c2n[nH]c3ccccc23)c1C (centres undefined) | 51.9
* CCOC(=O)[C@]12Cc3c(cc(OC)c(OC)c3OC)[C@H]1N(C1CCCCC1)C(=O)c1cc(OC)ccc12 | 80.1
* COc1ccc(C(=O)NNC(=S)NC(=O)/C=C/c2cccs2)cc1 | 42.2
* COc1ccccc1OCCNC(=O)c1ccc2c(c1)OCCO2 | 45.9
* Cc1nc(-c2ccc(NC(=O)c3cccs3)cc2)cs1 | 83.7
* O=C(CCl)N1N=C(c2ccco2)CC1c1cccs1 (centres undefined) | 97.8
* CC(=O)c1sc(NC(=O)c2ccc(C)cc2)nc1C | 68.1
* CCN1CCN(c2ccc(S(=O)(=O)N3CCCCC3)cc2NC(=O)c2ccc([N+](=O)[O-])s2)CC1 | 54.1
* Cn1cnc([N+](=O)[O-])c1Sc1nc(N)nc2c1ncn2C1CC(O)C(CO)O1 (centres undefined) | 65.6
* COc1ccccc1N1CCN(Cc2ccc(O)c3ncccc23)CC1 | 76
* CCc1cc2c(=O)c(-c3cnn(-c4ccccc4)c3)c(C)oc2cc1OCC(=O)Nc1ccc(F)c(F)c1 | 26.4
* CCc1cc2c(COC(=O)c3cc(S(=O)(=O)N4CCOCC4)ccc3F)cc(=O)oc2cc1O | 82.5
* Cc1ccc2nc(/C(C#N)=C\c3ccc([N+](=O)[O-])o3)[nH]c2c1 | 99
* O=S1(=O)CC(c2ccccc2)=NN=C(c2ccccc2)C1 | 75.8
* CC(C)C(=O)Nc1ccc(NC(=O)c2ccccn2)cn1 | 53
* COc1ccc(/C=C/c2nc3ccccc3n2C)cc1 | 97.1
* CCOC(=O)c1cnc(Nc2nc3ccccc3o2)nc1C | 91.1
* CN(C)c1ccc(-c2nc3ccccn3c2/N=C/c2ccc(Br)cc2)cc1 | 47
* C/C(=N\NC(=O)COc1ccc(C(C)(C)C)cc1)c1ccc(-n2ccnc2)cc1 | 49.1
* O=C1CCCCC(=O)[C@H](OC(=O)c2ccccc2)C[C@H](c2ccccc2)O1 | 2.2
* O=C(CCl)N=c1sccn1Cc1ccc(Cl)cc1Cl | 99.2
* N#Cc1nc(Nc2cccc(Cl)c2)c2ncn(C3CCCC3)c2n1 | 57.3
* Cc1nc2cc(NC(=O)c3ccc(Br)s3)ccc2s1 | 63.1
* Cc1cc(NC(=O)c2ccc(S(=O)(=O)N3CCCC3)cc2)nc2c1c(=O)oc1ccccc12 | 58.2
* CC(C)c1onc(C(=O)N2CCN(C(c3ccccc3)c3ccccc3)CC2)c1[N+](=O)[O-] | 93.9
* O=C(Nc1cccc(-c2ccc(N3CCCCC3)nn2)c1)C(F)(F)F | 95.2
* CC(=O)c1c(C)[nH]c(C(=O)Nc2ccccn2)c1C | 31.1
* N/C(=N\OC(=O)c1ccc(Cl)cc1)c1ccn[nH]1 | 91
* O=c1c2ccccc2oc2ccc(NCCCn3ccnc3)cc12 | 30.3

###

- assay_system: Tumor necrosis factor receptor superfamily member 10B (Homo sapiens)
- test_description: caspase-8 TRAIL sensitization, hit retest, confirmation, cell-based, NB7+caspase-8, with/without TRAIL, luminescence panel (AID 651596)
- condition: NB7 neuroblastoma + caspase-8, TRAIL sensitization, luminescence viability, with TRAIL, mean of runs, at 10 µM, stronger effect = higher value
Output MET for records whose activity is lower than 60%, NOT MET for records at or above 60%.

• COc1ccc(-c2cc(C(=O)OCC(=O)Nc3ccc4c(c3)OCO4)c3ccccc3n2)cc1 = MET
• Cc1ccc2nc(-c3ccc(NC(=O)CCN4C(=O)c5ccccc5C4=O)cc3)sc2c1 = NOT MET
• COc1cccc2oc3ccc(C#Cc4ccccn4)cc3c(=O)c12 = NOT MET
• Cc1ccc2c(c1)sc(=NC(=O)c1cccs1)n2C = NOT MET

###

Item-by-item account of activity
- assay_system: Tumor necrosis factor receptor superfamily member 10B (Homo sapiens)
- test_description: caspase-8 TRAIL sensitization, hit retest, confirmation, cell-based, NB7+caspase-8, with/without TRAIL, luminescence panel (AID 651596)
- condition: NB7 neuroblastoma + caspase-8, TRAIL sensitization, luminescence viability, with TRAIL, mean of runs, at 10 µM, stronger effect = higher value
attribute_measured: activity (%)

• CCOC(=O)c1sc(N(Cc2ccccc2)C(=O)CCl)nc1C = 99.1
• Nc1c(-c2ccccc2)cnn1-c1ccccc1 = 44.6
• O=C(Nc1c(Cl)cc2c(c1Cl)Cc1cc([N+](=O)[O-])ccc1-2)C(Cl)Cl = 89.3
• N/C(CCS(=O)(=O)c1ccc(Cl)cc1)=N\OC(=O)c1ccc(Cl)cc1 = 98.2
• Cc1ccn2cc(C(=O)Nc3ccc4c(c3)OCCO4)nc2c1 = 58.2
• CCCCN(CC)CCCNC(=O)C1c2ccccc2C(=O)N(C)C1c1cn(C)c2ccccc12 (stereo unspecified) = 71.8

###

- test_description: inhibitors of PAF-induced NFkB signaling in CF airway cells, dose response, cell-based, uHTS hits, panel, cytotoxicity readout (AID 624344)
- condition: CF bronchial epithelial cells, PAF-induced NFkB reporter inhibition, with PAF, run 1; at 79 µM (top of the series) unless noted
attribute_measured: inhibition (%)

* Nc1ncc([N+](=O)[O-])c(N2CCCCCC2)n1 | 115
* O=C(Nc1nnc(S(=O)(=O)N2CCCCCC2)s1)c1cccc(Br)c1 | 83
* COc1cccc(Nc2ncnc3ccc(Br)cc23)c1 | 119
* OCCCNc1ncnc2scc(-c3ccc(Cl)cc3)c12 | 115
* COc1ccc2c(c1OC)C(=O)N1c3ccccc3C(=O)N(c3ccccc3)C21 (configuration not stated) | 112
* FC(F)Sc1ccc(NC(=S)NC(c2ccccc2)c2ccccc2)cc1 | 116
* COc1ccc(OC)c(C2CC(=O)c3c([nH]c(C(=O)OC(C)C)c3C)C2)c1 (configuration not stated) | 51.7
* O=S(=O)(CC(CN1CCCC1)N1CCCC1)c1ccc2ccccc2c1 (configuration not stated) | 96.4
* CNc1ccc2ncc(-c3ccc(OC)c(OC)c3)n2n1 | 106
* COC(=O)N1C(=O)[C@@](c2ccc(OC)cc2)(C(C)C)N1C(=O)OC | 101
* CC1CCN(CC(CS(=O)(=O)c2ccc([N+](=O)[O-])cc2)N2CCC(C)CC2)CC1 (configuration not stated) | 101
* COc1ccc(N(Cc2cc(=O)[nH]c3ccccc23)C(=O)CCl)cc1 | 92.3
* COc1ccc2c(c1)c(C(C)=O)c(C)n2-c1ccc(C(C)=O)cc1 | 89.8
* CC1(O)CC(c2ccc(Cl)cc2)=NN1C(=O)c1ccc(Cl)cc1 (configuration not stated) | 109
* CCN1CCN(Cc2ccc(NC(=O)c3ccc(C)c(NC(=O)N4CCNC4=O)c3)cc2C(F)(F)F)CC1 | 103
* Cc1ccc(C(=O)c2cc([N+](=O)[O-])ccc2N2CCCCC2)c(C)c1 | 79.4
* Oc1ccc(CCNc2ncnc3ccc(Cl)cc23)cc1 | 113
* NS(=O)(=O)c1ccc(CCNc2nn3c(-c4cccc(OC(F)(F)F)c4)cnc3s2)cc1 | 98.6
* Nc1nccc(-c2ccc(-n3cnc4ccccc43)cc2)n1 | 101
* C[C@@H](NC(=O)c1coc(=O)c(Br)c1)c1ccccc1 | 77.6
* O=C(NCCN1CCN(c2ccccc2)CC1)c1cccc(Br)c1 | 113
* COc1ccc(-c2cn[nH]c2-c2ccc(OCc3ccccc3F)cc2O)cc1OC | 113
